src = ChEMBL document CHEMBL1152768

# Test system: Human alphaherpesvirus 3
# Assay details: Antiviral activity against thymidine kinase deficient Varicella zoster virus 07/1 infected in human HEL cells assessed reduction in viral plaque formation
# Assay type: functional, organism-based
# Experimental parameters: Human alphaherpesvirus 3, HEL
Binarize EC50 at 10 µM; below is T, at or above is F.

| Molecule | Label value |
| --- | --- |
| CC1(C(c2ccccc2)c2ccccc2)OS(=O)(=O)C=C1OCc1ccccc1 (racemic) | F |
| O=S1(=O)C=C(OCc2ccccc2)C2(CCc3ccccc3C2)O1 (racemic) | F |
| CCC1(Cc2ccccc2)OS(=O)(=O)C=C1OS(=O)(=O)c1ccc(C)cc1 (racemic) | F |
| CCC1(Cc2ccccc2)OS(=O)(=O)C=C1OCCCCc1ccccc1 (racemic) | F |
| CCCC1(Cc2ccccc2)OS(=O)(=O)C=C1OCc1ccccc1 (racemic) | F |
| CC1(Cc2ccccc2)OS(=O)(=O)C=C1OCc1ccccc1 (racemic) | F |
| CCC1(Cc2ccccc2)OS(=O)(=O)C=C1OCCCc1ccccc1 (racemic) | T |
| CCC1(Cc2ccccc2)OS(=O)(=O)C=C1OC (racemic) | F |
| O=S1(=O)C=C(OCc2ccccc2)C(Cc2ccccc2)(Cc2ccccc2)O1 | T |
| CCC1(Cc2ccccc2)OS(=O)(=O)C=C1OCCCCCCc1ccccc1 (racemic) | T |
| CCC1(Cc2ccccc2)OS(=O)(=O)C=C1NCc1ccccc1 (centres undefined) | F |
| CCC1(Cc2ccccc2)OS(=O)(=O)C=C1OCCc1ccccc1 (racemic) | T |
| CCC1(Cc2ccccc2)OS(=O)(=O)C=C1OC(=O)c1ccccc1 (racemic) | F |
| CCC1(Cc2ccccc2)OS(=O)(=O)C=C1OCc1ccc(C(F)(F)F)cc1 (racemic) | T |
| C=CCOC1=CS(=O)(=O)OC1(CC)Cc1ccccc1 (racemic) | F |
| CCC1(Cc2ccccc2)OS(=O)(=O)C=C1OCc1ccc(Br)cc1 (racemic) | T |
| CCC1(Cc2ccccc2)OS(=O)(=O)C=C1OCC=C(C)C (racemic) | F |
| CCC1(Cc2ccccc2)OS(=O)(=O)CC1=O (centres undefined) | F |
| CCC1(Cc2ccccc2)OS(=O)(=O)C=C1OCc1ccc([N+](=O)[O-])cc1 (racemic) | F |
| CCC1(Cc2ccccc2)OS(=O)(=O)C=C1OCC#N (racemic) | F |
| CCC1(Cc2ccccc2)OS(=O)(=O)C=C1OCc1ccccc1 (racemic) | T |
| CC(C)C1(Cc2ccccc2)OS(=O)(=O)C=C1OCc1ccccc1 (racemic) | F |
| CCC1(Cc2ccccc2)OS(=O)(=O)C=C1OCc1cccc(Cl)c1 (racemic) | T |
| O=c1[nH]c(=O)n([C@H]2C[C@H](O)[C@@H](CO)O2)cc1/C=C/Br | F |
| CC(C)CC1(Cc2ccccc2)OS(=O)(=O)C=C1OCc1ccccc1 (racemic) | F |
| CCC1(Cc2ccccc2)OS(=O)(=O)C=C1OCC(=O)OC (racemic) | F |
| CCC1(Cc2ccccc2)OS(=O)(=O)C=C1OC(c1ccccc1)c1ccccc1 (racemic) | F |
| CCC1(Cc2ccccc2)OS(=O)(=O)C=C1OCc1ccc(C)cc1 (racemic) | T |
